Item-by-item account of MIC
# System: Staphylococcus aureus
# Method summary: Antibacterial activity against Staphylococcus aureus Cowan 1 NCTC 8530 after 24 hrs by microdilution serial twofold assay
# Format: functional
# Condition context: Cowan 1, 24 h
Square brackets hold non-standard residues; d marks the D form. Peptide text beside a SMILES is read from it. 1Nal = N[C@@H](Cc1cccc2ccccc12)C(=O)O; 2Nal = N[C@@H](Cc1ccc2ccccc2c1)C(=O)O; hPhe = N[C@@H](CCc1ccccc1)C(=O)O
Could you give me the number in µM? Just the number is fine.

Here's what some known entries look like.
Reported MIC ( CSCC[C@H](NC(=O)[C@@H](NC(=O)CNC(=O)[C@H](CC(C)C)NC(=O)[C@H](CCCCN)NC(=O)[C@H](CCCCN)NC(=O)[C@H](CC(C)C)NC(=O)[C@H](CCSC)NC(=O)[C@@H](NC(=O)[C@H](CCCCN)NC(=O)[C@H](Cc1cccc2ccccc12)NC(=O)[C@H](CC(C)C)NC(=O)[C@H](C)NC(=O)[C@@H](N)CCCCN)[C@@H](C)O)[C@@H](C)O)C(=O)N[C@@H](C)C(=O)N[C@@H](CC(C)C)C(N)=O (H-KAL[1Nal]KTMLKKLGTMAL-NH2) ) = 5.1

Reported MIC ( CSCC[C@H](NC(=O)[C@@H](NC(=O)CNC(=O)[C@H](CC(C)C)NC(=O)[C@H](CCCCN)NC(=O)[C@H](CCCCN)NC(=O)[C@H](CC(C)C)NC(=O)[C@H](CCSC)NC(=O)[C@@H](NC(=O)[C@H](CCCCN)NC(=O)[C@H](CCc1ccccc1)NC(=O)[C@H](CC(C)C)NC(=O)[C@H](C)N)[C@@H](C)O)[C@@H](C)O)C(=O)N[C@@H](C)C(=O)N[C@@H](CC(C)C)C(N)=O (H-AL[hPhe]KTMLKKLGTMAL-NH2) ) = 46.8

Reported MIC ( CSCC[C@H](NC(=O)[C@@H](NC(=O)CNC(=O)[C@H](CC(C)C)NC(=O)[C@H](CCCCN)NC(=O)[C@H](CCCCN)NC(=O)[C@H](CC(C)C)NC(=O)[C@H](CCSC)NC(=O)[C@@H](NC(=O)[C@H](CCCCN)NC(=O)[C@H](Cc1cccc2ccccc12)NC(=O)[C@H](CC(C)C)NC(=O)[C@H](C)N)[C@@H](C)O)[C@@H](C)O)C(=O)N[C@@H](C)C(=O)N[C@@H](CC(C)C)C(N)=O (H-AL[1Nal]KTMLKKLGTMAL-NH2) ) = 11.5

Please turn your attention to the following entry.
Reported MIC ( CSCC[C@H](NC(=O)[C@@H](NC(=O)CNC(=O)[C@H](CC(C)C)NC(=O)[C@H](CCCCN)NC(=O)[C@H](CCCCN)NC(=O)[C@H](CC(C)C)NC(=O)[C@H](CCSC)NC(=O)[C@@H](NC(=O)[C@H](CCCCN)NC(=O)[C@H](Cc1ccc2ccccc2c1)NC(=O)[C@H](CC(C)C)NC(=O)[C@H](C)N)[C@@H](C)O)[C@@H](C)O)C(=O)N[C@@H](C)C(=O)N[C@@H](CC(C)C)C(N)=O (H-AL[2Nal]KTMLKKLGTMAL-NH2) ) = 11.5
